meta.source: PubChem BioAssay (NCI)

System: SK-MEL-2 melanoma
method summary: NCI-60 one-dose screen, 48 h (100 = growth as untreated, 0 = no growth, -100 = all killed)
run conditions: 10 µM unless noted
This is part of a sample that, as a whole, favours compounds with a hit. Of some 83,000 tested, about 20% had one in any assay.
Measured growth by item

>  <molecule>
CCOC(=O)CNS(=O)(=O)CC(=O)c1ccccc1

>  <units symbol>
%

>  <growth>
128

$$$$
>  <molecule>
O=C1CCNC1

>  <units symbol>
%

>  <growth>
109

$$$$
>  <molecule>
C/C(=N\Nc1cccc(Cl)n1)c1ccccn1

>  <units symbol>
%

>  <growth>
21

$$$$
>  <molecule>
O=C(Nc1ccc(Cl)cn1)C1(c2ccccc2)CCCCC1

>  <units symbol>
%

>  <growth>
116

$$$$
>  <molecule>
COc1cc2cc3cc4cc(OC)c(OC)cc4c(C)[n+]3cc2cc1OC (tested in a mixture with another compound)

>  <units symbol>
%

>  <growth>
69.5

$$$$
>  <molecule>
Br/C(=N\Nc1nn[nH]n1)c1ccccc1

>  <units symbol>
%

>  <growth>
90.9

$$$$
>  <molecule>
COc1cc2c(/C=C3\C(=O)Nc4ccc(Br)cc43)c(Cl)n(C)c2cc1C

>  <units symbol>
%

>  <growth>
29.7

$$$$
>  <molecule>
CCCC(=O)NNc1[nH]c(-c2cc(OC)c(OC)c(OC)c2)cc1C(=O)OCC

>  <units symbol>
%

>  <growth>
103

$$$$
>  <molecule>
Oc1ccc(N=Nc2ccc(N=Nc3ccccc3)cc2)cc1

>  <units symbol>
%

>  <growth>
47.3

$$$$
>  <molecule>
O=C(NC1CCN(Cc2ccccc2)CC1)c1cc(-c2cccnc2)nc2ccc(Cl)cc12

>  <units symbol>
%

>  <growth>
100

$$$$
>  <molecule>
COC(=O)c1ccc2[nH]c(O)c(C(=Nc3ccc(N(C)C(=O)CN4CCN(C)CC4)cc3)c3ccc(C)cc3)c2c1

>  <units symbol>
%

>  <growth>
-31.6

$$$$
>  <molecule>
O=c1[nH]c(=S)[nH]c(O)c1/C=C1\C=Nc2ccccc21

>  <units symbol>
%

>  <growth>
128

$$$$
>  <molecule>
COc1ccc(-c2cc(C#N)c(NNC(C)=O)[nH]2)cc1

>  <units symbol>
%

>  <growth>
102

$$$$
>  <molecule>
Cc1nc(N)sc1C(=O)NCCO

>  <units symbol>
%

>  <growth>
12.8

$$$$
>  <molecule>
CCCCCCCCCCCCOC(=N)N(C)C

>  <units symbol>
%

>  <growth>
95.8

$$$$
>  <molecule>
CCN(CC)CCCC(C)Nc1c(C)cnc2cc(Cl)c(C)cc12 (stereo not drawn)

>  <units symbol>
%

>  <growth>
117

$$$$
>  <molecule>
Cc1ccc(C(=O)Nc2ccc(CN3CCN(C)CC3)c(C(F)(F)F)c2)cc1C#Cc1cncc2ncccc12

>  <units symbol>
%

>  <growth>
-78.7

$$$$
>  <molecule>
C=C(NC(=O)[C@H](C(C)C)N(C)c1cccc2[nH]ccc12)C(=O)OC

>  <units symbol>
%

>  <growth>
104

$$$$
>  <molecule>
COc1cc2c(c(OC)c1OC)C(=O)CC(c1cccc(C(=O)Nc3cccc(Br)c3)c1)O2 (stereo not drawn)

>  <units symbol>
%

>  <growth>
73.8

$$$$
>  <molecule>
CN1CCN(Cc2ccc(NC(=O)c3ccc(C#Cc4c(N)ncc5ccc(F)cc45)cc3)cc2C(F)(F)F)CC1

>  <units symbol>
%

>  <growth>
-40.3

$$$$
>  <molecule>
CCCCCN1CCN(C(CC(=O)c2ccccc2)C(=O)c2ccccc2)CC1 (stereo not drawn)

>  <units symbol>
%

>  <growth>
104

$$$$
>  <molecule>
COc1cc(N)c2nccc(C)c2c1OC

>  <units symbol>
%

>  <growth>
103

$$$$
>  <molecule>
CCCCCCCCCCCCCCCCNC(=O)Nc1ccc(C)c(NC(=O)NCCCCCCCCCCCCCCCC)c1

>  <units symbol>
%

>  <growth>
117

$$$$
>  <molecule>
CC(=O)CCS(=O)c1ccccc1 (stereo not drawn)

>  <units symbol>
%

>  <growth>
97.1

$$$$
>  <molecule>
O=C1C(=O)c2ccccc2C(O)=C1CCCc1ccc(C2CCCC2)cc1

>  <units symbol>
%

>  <growth>
33.2

$$$$
>  <molecule>
C/C(CCC(=O)O)=N/Nc1ccc([N+](=O)[O-])cc1

>  <units symbol>
%

>  <growth>
26.9

$$$$
>  <molecule>
CC(=O)Nc1nc(C)c(C(=O)N/N=C/c2cccs2)s1

>  <units symbol>
%

>  <growth>
19.3

$$$$
>  <molecule>
CC(=O)OC1/C=C\CC/C=C\C1 (stereo not drawn)

>  <units symbol>
%

>  <growth>
109

$$$$
>  <molecule>
O=C(N/N=C/c1cc(Cl)ccc1O)C(=O)N/N=C/c1cc(Cl)ccc1O

>  <units symbol>
%

>  <growth>
109

$$$$
>  <molecule>
Clc1ccc(N/N=C/c2ccccn2)nc1

>  <units symbol>
%

>  <growth>
37.4

$$$$
>  <molecule>
COc1ccc2c(c1)/C(=C/c1c(-c3cc(OC)c(OC)c(OC)c3)nc3sccn13)C(=O)N2

>  <units symbol>
%

>  <growth>
98.6

$$$$
>  <molecule>
Oc1ccc([S+](c2ccc(O)cc2)c2ccc(O)cc2)cc1

>  <units symbol>
%

>  <growth>
117

$$$$
>  <molecule>
O=C(/C=C/c1ccc(Cl)cc1)c1ccc(Cl)cc1

>  <units symbol>
%

>  <growth>
97.2

$$$$
>  <molecule>
CC(O)CN(CCO)CCN(CCO)CC(C)O (stereo not drawn)

>  <units symbol>
%

>  <growth>
114

$$$$
>  <molecule>
CCOC(=O)c1csc(-c2ccc(COC(=O)c3ccccc3)o2)n1

>  <units symbol>
%

>  <growth>
107

$$$$
>  <molecule>
Cc1cc2c(-c3nc4ccccc4[nH]3)c(O)c(O)cc2c(O)c1-c1c(C)cc2c(-c3nc4ccccc4[nH]3)c(O)c(O)cc2c1O

>  <units symbol>
%

>  <growth>
7.6

$$$$
>  <molecule>
COc1cc(OC)c(/C=C/c2ccc3ccccc3[n+]2C)c(OC)c1

>  <units symbol>
%

>  <growth>
-4.21

$$$$
>  <molecule>
COc1cc2c(cc1OC)C(Cc1cc(OC)c(OC)cc1[N+](=O)[O-])=NCC2

>  <units symbol>
%

>  <growth>
92.9

$$$$
